# Test system: BT-549 breast
# Test protocol: NCI tumour cell line growth inhibition, 48 h
# Lookup of reported TGI keyed by entry

Record excerpt, results attached:
[[record]]
compound = "CCCc1cc(=O)[nH]c(-n2nc(C)cc2C)n1"
measured_value = "> 100 µM"

[[record]]
compound = "CC1CC[C@@]2(OC1)OC1C[C@H]3[C@@H]4CC=C5CC(OC6OC(CO)C(OC7OC(CO)C(O)C(OC8OCC(O)C(O)C8O)C7OC7OC(CO)C(O)C(O)C7O)C(O)C6O)CCC5(C)[C@H]4CCC3(C)C1[C@@H]2C (stereo partly drawn)"
measured_value = "9.24 µM"

[[record]]
compound = "O=C1NC(=S)N/C1=C\\c1ccc(Br)s1"
measured_value = "> 100 µM"

[[record]]
compound = "COc1ccc2c(=O)cc(-c3ccncc3)oc2c1OC"
measured_value = "98.4 µM"

[[record]]
compound = "C=C1/C(=C\\C=C2/CCC[C@]3(C)[C@@H]([C@H](C)CCCC(C)(C)O)CC[C@@H]23)C[C@@H](OC(=O)CBr)C[C@@H]1O"
measured_value = "4.36 µM"


Given Cc1nn(C(=O)c2ccc(Cl)cc2)c2c1C(c1ccccc1[N+](=O)[O-])SC(N)=N2 (stereo not drawn) , state its recorded TGI.
> 10 µM

What does the data say about its TGI? Entry: Cc1cc(NCCN(C(C)C)C(C)C)nc(/N=C(\N)Nc2ccc(Cl)c(C(F)(F)F)c2)n1
3.59 µM

For CC(C)(C)OC(=O)N1CCC(C(=O)O)CC1 , what is its reported TGI?
> 100 µM

Which TGI value is on record for O=C(/C=C/c1ccc(O)c(-c2cc(C(=O)/C=C/c3ccc(O)cc3)c(O)cc2O)c1)c1ccc(O)cc1O ?
> 50 µM

* * *

# System: SNB-19 CNS
# Test protocol: NCI tumour cell line growth inhibition, 48 h
Quantity kind: TGI (µM)
Supply the numeric figure in µM, leaving out any unit text.

[[record]]
molecule = "CC1=CC(=O)c2ccccc2C1=O"
reading_unit = "µM"
measured_value = 33.5


Reported TGI for SNB-19 CNS, given CC(C)(C)c1cc(C2=NNC(c3ccccc3)C2)cc(C(C)(C)C)c1O (stereo unspecified) ?
36.4

Hello, I am looking for reported TGI with SNB-19 CNS for Cc1cc(NCCN(C(C)C)C(C)C)nc(/N=C(\N)Nc2ccc(Cl)c(C(F)(F)F)c2)n1 . Could you help?
2.83

* * *

Reported log10 TGI is given for each of the following compounds.
# System: COLO 205 colon
# Test protocol: NCI tumour cell line growth inhibition, 48 h
Would you kindly interpret these values as log10 of TGI expressed in µM?

See these solved cases before continuing.
[[record]]
compound = "O=C(Nc1cccc(-n2cc(-c3ccncc3)c(-c3cc(O)cc(Cl)c3)n2)c1)Nc1ccc(Cl)c(C(F)(F)F)c1"
measured_value = 0.71

[[record]]
compound = "COc1ccc2c(c1)[nH]c1c(/C=C/c3ccccc3)nccc12"
measured_value = 1.30

[[record]]
compound = "Nc1cccc(/C=C/C(=O)N2CCN(CCOC(c3ccccc3)c3ccccc3)CC2)c1"
measured_value = 1.52


Record request: log10 TGI value, item NCCSC(c1ccccc1)c1ccccc1
1.59

// query log10 TGI value for entry Fc1ccc(C(OCCN2CCC3CCC(C2)N3C/C=C/c2ccco2)c2ccc(F)cc2)cc1 (stereo not given)
1.12

Quick one: log10 TGI of Cc1ccc(N(C(=O)Nc2ccccc2)C2=NCC(C)S2)cc1C (stereo not given) ?
1.62
